MEASURED_ON: CYP2C9 (Homo sapiens)
Sequence (P11712 whole entry): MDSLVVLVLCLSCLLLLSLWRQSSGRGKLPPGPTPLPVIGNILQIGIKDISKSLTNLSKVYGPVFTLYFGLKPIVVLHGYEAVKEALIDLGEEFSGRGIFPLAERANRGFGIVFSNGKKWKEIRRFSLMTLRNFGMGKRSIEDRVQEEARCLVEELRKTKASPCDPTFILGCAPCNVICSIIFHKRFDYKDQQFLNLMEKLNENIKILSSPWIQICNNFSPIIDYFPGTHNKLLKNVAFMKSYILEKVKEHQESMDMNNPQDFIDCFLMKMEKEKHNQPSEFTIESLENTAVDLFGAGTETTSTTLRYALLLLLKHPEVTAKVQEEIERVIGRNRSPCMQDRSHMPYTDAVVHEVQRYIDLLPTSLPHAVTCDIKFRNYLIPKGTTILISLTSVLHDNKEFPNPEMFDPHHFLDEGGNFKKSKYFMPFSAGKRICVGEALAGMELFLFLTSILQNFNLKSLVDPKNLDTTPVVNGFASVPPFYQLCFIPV
PROTOCOL_DETAILS: CYP inhibition in human liver microsomes, 2C9
Assay type: in vitro ADME
MEASUREMENT_TYPE: inhibition at 1 µM (%)
One number for each entry, in %.

[ask] # get_value(readout= inhibition at 1 µM, system= CYP2C9 (Homo sapiens)) for CC[C@@H]([C@H](C)O)n1ncn(-c2ccc(N3CCN(c4ccc(OC[C@@H]5CO[C@@](Cn6cncn6)(c6ccc(F)cc6F)C5)cc4)CC3)cc2)c1=O [Posaconazole]
[reply] -3

* * *

MEASURED_ON: CYP2D6 (Homo sapiens, UniProt P10635)
Sequence (P10635 whole entry): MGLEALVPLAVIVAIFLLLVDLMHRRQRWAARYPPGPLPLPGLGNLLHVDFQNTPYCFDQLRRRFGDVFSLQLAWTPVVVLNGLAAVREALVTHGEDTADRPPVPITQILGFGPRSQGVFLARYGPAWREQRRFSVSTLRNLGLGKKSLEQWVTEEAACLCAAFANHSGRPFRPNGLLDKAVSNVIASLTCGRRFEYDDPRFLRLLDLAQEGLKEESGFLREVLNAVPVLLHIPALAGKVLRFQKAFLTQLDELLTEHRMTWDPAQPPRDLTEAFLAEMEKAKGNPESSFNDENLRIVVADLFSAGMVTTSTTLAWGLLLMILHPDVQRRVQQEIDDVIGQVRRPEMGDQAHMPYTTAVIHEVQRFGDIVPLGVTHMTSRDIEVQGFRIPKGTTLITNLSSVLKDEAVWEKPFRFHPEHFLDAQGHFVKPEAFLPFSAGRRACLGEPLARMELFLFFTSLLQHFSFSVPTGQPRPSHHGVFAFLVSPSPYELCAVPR
PROTOCOL_DETAILS: CYP inhibition in human liver microsomes, 2D6
Format: in vitro ADME
MEASUREMENT_TYPE: inhibition at 1 µM (%)
Answers are plain numbers, in %.

[ask] For "CC[C@@H]([C@H](C)O)n1ncn(-c2ccc(N3CCN(c4ccc(OC[C@@H]5CO[C@@](Cn6cncn6)(c6ccc(F)cc6F)C5)cc4)CC3)cc2)c1=O" , what is its reported inhibition at 1 µM?
[reply] -9

* * *

PROTOCOL_DETAILS: Single dose PK
Assay type: in vivo
STUDY_CONDITIONS: female, Swiss Webster, mouse, plasma, po, 50 mg/kg
MEASUREMENT_TYPE: half-life

# MOLECULAR_STRING, half-life
data = [
    ("O=C(N[C@H](Cc1c[nH]c2ccccc12)C(=O)Nc1ccncc1)c1ccc(-c2ccc(F)c(F)c2)cc1F", "< 3.3 h"),
]

Would you kindly look at the next entry?
[ask] Item under review: "O=C(N[C@H](Cc1c[nH]c2ccccc12)C(=O)Nc1ccncc1)c1ccc(-c2ccc(F)c(C(F)(F)F)c2)cc1F" . Reported half-life?
[reply] < 3.3 h
